Where these numbers come from: a melting point compilation (Tetko et al.)

Listed here are compounds together with their documented melting point.

Here are 6 compounds together with their reported answers.
1) O=C(O)c1cc(Br)ccc1I    120 to 122 °C
2) COc1ccccc1Nc1nc(N)nc(CCl)n1    160 to 162 °C
3) Fc1ccc(C2=NOC(CCl)C2)cc1 (configuration not stated)    59 to 61 °C
4) O=C(O)CCCCNC(=O)c1ccc2[nH]nnc2c1    189 to 191 °C
5) O=c1[nH]c(S)nc2c1cnn2-c1cccc(Cl)c1    255 to 257 °C
6) Nc1nccc(C(F)(F)F)n1    174 to 178 °C

// switching to the query compound
Provide measured melting point value, entry: `COc1ccccc1NC(=O)NC1CCNCC1` 83 to 85 °C
